From: patent US5391765A

// values below are reported Oxd. Potential
# Procedure summary: Oxidation potential by cyclic voltammetry
Entry rule: numbers only, all in Volts.

These recorded examples may help you get a feel for the data.
[[record]]
molecule = "Cc1c(C)c2c(c(C)c1O)CCC(C)(CCCC(C)CCCC(C)CCCC(C)C)O2 (stereo not shown)"
val = 0.81

[[record]]
molecule = "CC(C)=CCC/C(C)=C/CC/C(C)=C/CCSCC1=CC(C)(C)N([O])C1(C)C"
val = 0.65

[[record]]
molecule = "CC(C)(Sc1cc(C(C)(C)C)c(O)c(C(C)(C)C)c1)Sc1cc(C(C)(C)C)c(O)c(C(C)(C)C)c1"
val = 1.12


The record that follows has no Oxd. Potential shown yet.
Query :: Fill blank: measured Oxd. Potential of the molecule CC(C)=CCC/C(C)=C/CC/C(C)=C/CCC1(C)CCc2cc(O)c(C)c(C)c2O1 (stereo not shown) is ____.
Result :: 0.94
